- test name: growth inhibition of non-replicating M. tuberculosis (AID 488890);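 note: plate controls were DMSO cells for no effect and high antibiotic wells for full effect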
- measurement context: Mycobacterium tuberculosis non-replicating, at 25 µM, stronger effect = higher value
Hit rate of the full screen: of about 320,000 compounds, about 1,300 (0.41%) were called active. Another 3% or so got no clear call; they are omitted. The list is a sample of the results. Results with a measured potency or affinity are listed apart.
The entries below come with measured inhibition values attached.
Entry rule: numbers only, all in %.

Some compounds with known inhibition results, for comparison:
compound=CC(C)(C)c1cc(NCCCn2ccnc2)n2ncc(-c3ccccc3)c2n1 measured_attribute=inhibition readout_units=% measured_number=73.1
compound=CCOC(=O)CCSc1nc(-c2ccccc2)cc(C(F)(F)F)n1 measured_attribute=inhibition readout_units=% measured_number=8.6
compound=O=[N+]([O-])c1ccc(Oc2ccc(-c3nnco3)cc2)c(Cl)c1 measured_attribute=inhibition readout_units=% measured_number=-9.83

[in] Query inhibition for "Cc1ccc(/C=N/NC(=O)c2nnn(-c3nonc3N)c2CN(C)C)o1"
[out] -3.62

[in] Query inhibition for "COC(=O)c1ccc(N2NC(=O)/C(=C/c3cc(OC)c(OC)c(OC)c3)C2=O)cc1"
[out] 13.4

[in] Query inhibition for "Nc1cccn2c(-c3ccc(Cl)c(Cl)c3)cnc12"
[out] 54.7

[in] Query inhibition for "COc1ccc(-c2cc(C(F)(F)F)nc(N)n2)cc1"
[out] 6.01

[in] Query inhibition for Cc1cc(C)cc(NC(=O)Cn2c(=O)oc3cc(S(=O)(=O)N4CC(C)CC(C)C4)ccc32)c1 (stereo unspecified)
[out] 12.4

---

- test name: growth inhibition of non-replicating M. tuberculosis (AID 488890);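 note: plate controls were DMSO cells for no effect and high antibiotic wells for full effect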
- measurement context: Mycobacterium tuberculosis non-replicating, at 25 µM, stronger effect = higher value
Among all 320,000 compounds or so, about 1,300 (0.41%) were called active. Inconclusive results (about 3%) are left out. Only a sample is shown. Measured potencies and affinities stand elsewhere.
measured attribute: inhibition (%)
Entry rule: numbers only, all in %.

compound=C=C(C)COc1ccc(-c2[nH]ncc2Oc2ccc(OC)cc2)c(O)c1 measured_attribute=inhibition measured_number=-5.21

[in] Query inhibition for "COc1ccc(CCNC(=O)NC(C(F)(F)F)C(F)(F)F)cc1OC"
[out] -0.6

[in] Query inhibition for CS(=O)(=O)Cc1ccc(C(=O)N2CCCC2c2cccs2)cc1 (centres undefined)
[out] 0.57

[in] Query inhibition for "O=[N+]([O-])c1ccc(Cc2nnc(-c3ccc(F)cc3)o2)cc1"
[out] 72.1

[in] Query inhibition for Cc1ccc(N2C(=O)CC(N3CCSCC3)C2=O)c(C)c1 (centres undefined)
[out] 66.2

[in] Query inhibition for "O=C(Nc1nc2ccccc2[nH]1)c1cc2ccccc2o1"
[out] 34.8

[in] Query inhibition for "COc1ccc(OCCCC(=O)OCC(=O)Nc2nnc(-c3ccccc3)o2)cc1"
[out] 24.6

[in] Query inhibition for COc1ccc(NC(=O)C2CC(=O)n3ncnc3N2)cc1 (centres undefined)
[out] -0.6

[in] Query inhibition for "Cc1cn(C(=O)c2cccc(Br)c2)c(C)n1"
[out] -0.97

[in] Query inhibition for Cc1cccc(C)c1OC(=O)CCN1C(=O)C2C3C=CC(C4CC34)C2C1=O (centres undefined)
[out] 67.5

[in] Query inhibition for "CCC(CC)c1nnc(NC(=O)c2cc(-c3ccccc3)nc3ccccc23)s1"
[out] 18.4

[in] Query inhibition for "CCOC(=O)CN(C#N)c1nc(C)cc(C)n1"
[out] 1.75

[in] Query inhibition for "Cc1cccc(NCc2ccccc2O)c1C"
[out] 12.1

[in] Query inhibition for "CSc1nc2c(c(=O)[nH]c(=O)n2C)n1Cc1ccccc1"
[out] 4.61
